Target: human GluN1/GluN2B NMDA receptors (Homo sapiens, UniProt Q05586+Q13224)
Sequence (Q13224 27-1484, other chains not shown): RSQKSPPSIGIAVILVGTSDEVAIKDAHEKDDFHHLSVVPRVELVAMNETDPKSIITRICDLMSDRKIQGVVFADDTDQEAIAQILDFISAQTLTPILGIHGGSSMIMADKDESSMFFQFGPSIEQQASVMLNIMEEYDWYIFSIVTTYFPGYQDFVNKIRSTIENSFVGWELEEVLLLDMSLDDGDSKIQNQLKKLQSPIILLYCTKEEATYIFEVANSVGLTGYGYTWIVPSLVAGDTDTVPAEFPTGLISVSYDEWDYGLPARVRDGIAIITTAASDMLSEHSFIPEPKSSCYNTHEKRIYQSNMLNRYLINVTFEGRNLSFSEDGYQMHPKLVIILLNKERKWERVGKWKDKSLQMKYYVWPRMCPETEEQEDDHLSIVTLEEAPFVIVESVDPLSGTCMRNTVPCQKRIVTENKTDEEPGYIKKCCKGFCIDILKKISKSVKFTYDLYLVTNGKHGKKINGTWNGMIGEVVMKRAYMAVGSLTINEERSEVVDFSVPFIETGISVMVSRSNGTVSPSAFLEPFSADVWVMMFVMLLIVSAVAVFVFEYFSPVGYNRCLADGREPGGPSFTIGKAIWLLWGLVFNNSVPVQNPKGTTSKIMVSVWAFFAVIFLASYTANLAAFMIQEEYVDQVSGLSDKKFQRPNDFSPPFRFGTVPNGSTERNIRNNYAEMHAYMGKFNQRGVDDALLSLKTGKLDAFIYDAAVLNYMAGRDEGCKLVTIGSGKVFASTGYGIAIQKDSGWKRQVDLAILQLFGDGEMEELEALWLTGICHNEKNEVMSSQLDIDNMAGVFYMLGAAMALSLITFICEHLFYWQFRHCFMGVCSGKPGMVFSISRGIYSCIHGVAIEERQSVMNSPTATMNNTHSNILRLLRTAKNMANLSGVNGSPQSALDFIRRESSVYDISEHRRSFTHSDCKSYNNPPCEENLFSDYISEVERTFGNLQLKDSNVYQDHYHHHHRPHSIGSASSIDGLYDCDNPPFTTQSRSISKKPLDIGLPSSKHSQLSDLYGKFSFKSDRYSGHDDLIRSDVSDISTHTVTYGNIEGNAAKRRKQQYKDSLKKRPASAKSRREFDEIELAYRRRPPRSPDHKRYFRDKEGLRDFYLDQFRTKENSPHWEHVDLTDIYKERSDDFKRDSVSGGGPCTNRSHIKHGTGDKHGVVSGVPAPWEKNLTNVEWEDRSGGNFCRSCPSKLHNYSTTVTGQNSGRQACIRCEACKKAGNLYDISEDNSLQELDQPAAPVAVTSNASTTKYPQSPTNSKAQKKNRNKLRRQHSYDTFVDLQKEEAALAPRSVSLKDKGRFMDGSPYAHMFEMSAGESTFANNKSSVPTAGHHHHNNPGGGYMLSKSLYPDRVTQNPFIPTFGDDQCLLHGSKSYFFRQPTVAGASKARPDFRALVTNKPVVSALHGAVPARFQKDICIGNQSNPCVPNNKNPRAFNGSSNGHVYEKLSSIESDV
Assay: Cell-based calcium flux (FLIPR) assay on cloned human GluN1/GluN2B ion channels expressed in mammalian cells
Settings: standard assay; glutamate ~EC40, 10 μM glycine; stable Tet-On cell line
# key: entry, value: log10 of IC50
Please note: log10 values; quantity IC50; unit nM.

compound	endpoint_result
O=C1OCCCN1Cc1cncc(-c2ccc(F)c(C(F)F)c2)c1	0.95
[2H]C([2H])(c1cc(-c2ccc(F)c(OC(F)F)c2)cnc1C)N1CCCOC1=O	0.95
CC1(C)CCN(Cc2cncc(-c3ccc(F)c(C(F)F)c3)c2)C(=O)O1	2.78
Cc1ncc(-c2ccc(F)cc2F)cc1CN1CCCOC1=O	3.35
O=C1OCc2ccccc2N1Cc1cncc(-c2ccc(F)c(C(F)F)c2)c1	1.86
Cc1ncc(-c2cccc(C(F)(F)F)c2)cc1CN1CCCOC1=O	1.70
O=C1OCCN1Cc1cc(-c2ccc(F)c(OC(F)F)c2)cnc1F	1.04
Cc1ncc(-c2ccc(F)c(C(F)F)c2)cc1CN1CC(C)OC1=O (racemic)	1.32

Consider the additional compound presented here.
Dear colleague, I am looking for the recorded log10 of IC50 of the following compound: `O=C1OCCN1Cc1cncc(-c2cccc(C(F)(F)F)n2)c1` 2.90

* * *

Target: human GluN1/GluN2B NMDA receptors (Homo sapiens, UniProt Q05586+Q13224)
Experiment: Cell-based calcium flux (FLIPR) assay on cloned human GluN1/GluN2B ion channels expressed in mammalian cells
Conditions: standard assay; glutamate ~EC40, 10 μM glycine; stable Tet-On cell line
reported_metric: log10(IC50) (log10 of the value in nM)
# log10 transformed; quantity=IC50; unit=nM

compound	endpoint_result
CC1CN(Cc2cncc(-c3ccc(F)c(C(F)F)c3)c2)C(=O)O1 (racemic)	1.45

Dear colleague, I am looking for the recorded log10(IC50) of the following compound: `Cc1c(F)ccc(-c2cncc(CN3CCOC3=O)c2)c1F` 0.95

* * *

Target: human GluN1/GluN2B NMDA receptors (Homo sapiens, UniProt Q05586+Q13224)
Assay: Cell-based calcium flux (FLIPR) assay on cloned human GluN1/GluN2B ion channels expressed in mammalian cells
Details: standard assay; glutamate ~EC40, 10 μM glycine; stable Tet-On cell line
Recorded IC50 by entry

molecule	IC50
COc1ncc(-c2ccc(F)c(OC(F)(F)F)c2)cc1CN1CCOC1=O [Example 113]	13 nM
C[C@@H]1CN(Cc2cc(-c3ccc(F)c(OC(F)F)c3)cnc2C(C)(F)F)C(=O)O1 [Example 149]	127 nM
COc1ncc(-c2ccc(F)c(OC(F)F)c2)cc1CN1C(=O)OC[C@H]1C [Example 118]	26 nM
CC1CN(Cc2cncc(-c3ccc(F)c(OC(F)F)c3)c2)C(=O)O1 (racemic) [Example 6]	15 nM
COc1ncc(-c2cccc(C)c2)cc1CN1CCOC1=O [Example 105]	434 nM
CC(C)[C@H]1COC(=O)N1Cc1cncc(-c2ccc(F)c(OC(F)F)c2)c1 [Example 3]	3010 nM

We now examine a further molecule.
Form: Entry = C[C@H]1CN(Cc2cc(-c3ccc(F)c(OC(F)F)c3)cnc2C(C)(F)F)C(=O)O1 [Example 148] | System = human GluN1/GluN2B NMDA receptors (Homo sapiens, UniProt Q05586+Q13224) | IC50 = ____ 147 nM

* * *

Target: human GluN1/GluN2B NMDA receptors (Homo sapiens, UniProt Q05586+Q13224)
Experiment: Cell-based calcium flux (FLIPR) assay on cloned human GluN1/GluN2B ion channels expressed in mammalian cells
Conditions: standard assay; glutamate ~EC40, 10 μM glycine; stable Tet-On cell line
Returns: string. Value is Condition met if measured IC50 is below 100 nM, and Condition not met if it is greater than or equal to it.

Previously resolved entries follow.
compound	target	classification
C[C@@H]1CN(Cc2cncc(-c3ccc(F)c(C(F)F)c3)c2)C(=O)O1 (single isomer, unassigned) [Example 28]	human GluN1/GluN2B NMDA receptors (Homo sapiens, UniProt Q05586+Q13224)	Condition met
CC1CN(Cc2cncc(-c3ccc(F)c(OC(F)F)c3)c2)C(=O)O1 (single isomer, unassigned) [Example 7]	human GluN1/GluN2B NMDA receptors (Homo sapiens, UniProt Q05586+Q13224)	Condition met
O=C1OCCN1Cc1cc(-c2ccc(Cl)c(OC(F)F)c2)cnc1C(F)F	human GluN1/GluN2B NMDA receptors (Homo sapiens, UniProt Q05586+Q13224)	Condition met
CC1CN(Cc2cncc(-c3ccc(F)c(OC(F)F)c3)c2)C(=O)O1 (single isomer, unassigned) [Example 8]	human GluN1/GluN2B NMDA receptors (Homo sapiens, UniProt Q05586+Q13224)	Condition met
Cc1ncc(-c2ccc(F)c(C(F)F)c2)cc1CN1C(=O)OCC1C (racemic)	human GluN1/GluN2B NMDA receptors (Homo sapiens, UniProt Q05586+Q13224)	Condition not met

Please let me know if O=C1OC(CN2CCOCC2)CN1Cc1cncc(-c2ccc(F)c(OC(F)F)c2)c1 (single isomer, unassigned) [Example 19] shows IC50 below 100 nM. Condition not met

* * *

Target: human GluN1/GluN2B NMDA receptors (Homo sapiens, UniProt Q05586+Q13224)
Test: Cell-based calcium flux (FLIPR) assay on cloned human GluN1/GluN2B ion channels expressed in mammalian cells
Details: standard assay; glutamate ~EC40, 10 μM glycine; stable Tet-On cell line
reported_metric: IC50

Worked cases, answers included:
molecule	reported_metric	endpoint_result
Cc1ncc(-c2ccc(Cl)c(OC(F)F)c2)cc1CN1CCOC1=O [Example 89]	IC50	14 nM
COc1ncc(-c2cc(C)cc(F)c2)cc1CN1CCOC1=O [Example 104]	IC50	159 nM
Cc1ncc(-c2ccc(F)c(OC(F)F)c2)cc1CN1CC(C)(C)OC1=O [Example 87]	IC50	373 nM
CC(C)[C@@H]1COC(=O)N1Cc1cncc(-c2ccc(F)c(OC(F)F)c2)c1 [Example 11]	IC50	> 3000 nM

Item Cc1ncc(-c2ccc(C(F)(F)F)s2)cc1CN1CCOC1=O [Example 99] with human GluN1/GluN2B NMDA receptors (Homo sapiens, UniProt Q05586+Q13224) - IC50? 16 nM

* * *

Target: human GluN1/GluN2B NMDA receptors (Homo sapiens, UniProt Q05586+Q13224)
Test: Cell-based calcium flux (FLIPR) assay on cloned human GluN1/GluN2B ion channels expressed in mammalian cells
Conditions: standard assay; glutamate ~EC40, 10 μM glycine; stable Tet-On cell line
Description: 5.3. Biological Assays: Effect of Compounds of Formula (I) on Cloned Human GluN1/GluN2B Ion Channels Expressed in Mammalian Cells NMDA receptors are ion channels that are highly permeable to Ca^2+ ions, rendering it possible to monitor NMDA receptor function using cell-based calcium flux assay. […] The time course of the changes in intracellular calcium is measured using a fluorescent dye and a FLIPR (Fluorometric Imaging Plate Reader) device. […]
reported_metric: IC50 (nM)
Provide only the numeric value, understood in nM.

# count of solved cases: 4
compound	IC50 (nM)
Cc1ncc(-c2ccc(F)c(Cl)c2)cc1CN1CCCOC1=O	30
CC(F)(F)c1ncc(-c2ccc(F)c(C(F)F)c2)cc1CN1CC2(CCC2)OC1=O	549
O=C1OCCN1Cc1cncc(-c2cccc(C(F)(F)F)c2)c1	26
Cc1cc(-c2cnc(C(F)F)c(CN3CCCOC3=O)c2)ccc1F	276

Now consider the entry below.
Give its IC50 value. Item: `[2H]C([2H])(c1cc(-c2ccc(F)c(C(F)F)c2)cnc1C)N1CCOC1=O` 13

* * *

Biological target: human GluN1/GluN2B NMDA receptors (Homo sapiens, UniProt Q05586+Q13224)
Experiment: Cell-based calcium flux (FLIPR) assay on cloned human GluN1/GluN2B ion channels expressed in mammalian cells
Conditions: standard assay; glutamate ~EC40, 10 μM glycine; stable Tet-On cell line
Rule: measured IC50 below 40 nM gets t; anything equal to or greater than 40 nM gets f.

Observe how each entry below is paired with its result.
molecule	classification
COc1ncc(-c2ccc(Cl)c(OC(F)F)c2)cc1CN1CCOC1=O	t
C[C@H]1CN(Cc2cncc(-c3ccc(F)c(C(F)F)c3)c2)C(=O)O1 (single isomer, unassigned)	t
O=C1OCCCN1Cc1cc(-c2ccc(F)c(OC(F)F)c2)cnc1F	t
O=C1OC2(CCOCC2)CN1Cc1cncc(-c2ccc(F)c(OC(F)F)c2)c1	f
COc1ncc(-c2cc(F)c(F)c(F)c2)cc1CN1CCOC1=O	f
COc1ncc(-c2cc(F)cc(C)c2F)cc1CN1CCOC1=O	f
O=C1OC2(CCC2)CN1Cc1cncc(-c2ccc(F)c(C(F)F)c2)c1	t
C[C@@H]1COC(=O)N1Cc1cc(-c2ccc(F)c(OC(F)F)c2)cnc1OC(F)F	f
Cc1ncc(-c2ccc(F)c(F)c2)cc1CN1CCCOC1=O	f
Cc1ncc(-c2ccc(F)c(OC(F)F)c2)cc1CN1CCCOC1=O	t

Strictly below 40 nM: is that where IC50 of `O=C1OCCCN1Cc1cncc(-c2ccc(F)c(C(F)(F)F)c2)c1` sits? t

Confirm or reject: IC50 of `O=C1OCCCN1Cc1cc(-c2ccc(Cl)c(OC(F)F)c2)cnc1C(F)F` lies strictly below 40 nM f

Input `O=C1OC2(CCOCC2)CN1Cc1cncc(-c2ccc(F)c(C(F)F)c2)c1` ; condition: IC50 strictly below 40 nM. Does it hold? f

Does this molecule meet the criterion IC50 < 40 nM? `O=C1OCCN1Cc1cncc(-c2ccnc(C(F)(F)F)c2)c1` f

IC50 under 40 nM? Item: `O=C1OCCN1Cc1cncc(-c2ccc(F)c(C(F)F)c2)c1` t

The measurements presented in this section are drawn from patent US11447503B2.
